B1: FAM189A2 (parent)
chain: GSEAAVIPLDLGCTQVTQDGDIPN

# Variants of: B1
# assay.procedure: protein stability index of a GFP-peptide fusion (GPS, HEK-293T) (PSI 1-6); higher = more stable;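 note: lentivirally expressed fusions sorted by FACS into six bins by GFP to DsRed ratio, PSI derived from sequencing read proportions per bin multiplied by bin number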
# test.parameters: c terminus: a fixed tail appended
We use 5 as the dividing line for protein stability index: on or above the line is 1.0, below is 0.0.

>>> print(df.to_string())
   variant_designation  assigned_category
0                  I7Q                1.0
1                  G1R                1.0
2                 V16Q                0.0
3                 N24G                1.0
4                 D19G                1.0
5                 D21N                0.0
6                 D19N                0.0
7                  E3I                0.0

Please check the record V16C and state if its protein stability index is at or above 5.
1.0

Please check the record Q15M and state if its protein stability index is at or above 5.
1.0

Please check the record E3M and state if its protein stability index is at or above 5.
0.0

Please check the record P8G and state if its protein stability index is at or above 5.
1.0

Please check the record L9G and state if its protein stability index is at or above 5.
1.0

Please check the record G12F and state if its protein stability index is at or above 5.
0.0

Please check the record P23T and state if its protein stability index is at or above 5.
1.0
